tested on: adenosine A1 receptors (Bos taurus, UniProt P28190)
Sequence (P28190 whole entry): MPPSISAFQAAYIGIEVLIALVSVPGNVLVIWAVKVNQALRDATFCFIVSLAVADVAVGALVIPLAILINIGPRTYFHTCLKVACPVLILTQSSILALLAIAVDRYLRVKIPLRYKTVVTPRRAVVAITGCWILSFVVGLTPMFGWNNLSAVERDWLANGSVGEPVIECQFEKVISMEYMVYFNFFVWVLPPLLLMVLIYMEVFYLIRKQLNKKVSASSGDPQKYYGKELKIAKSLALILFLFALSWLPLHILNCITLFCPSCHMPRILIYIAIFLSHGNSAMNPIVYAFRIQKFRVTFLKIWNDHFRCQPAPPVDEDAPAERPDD
test method notes: inhibition of [^3 H]CHA binding to A1 adenosine receptors in bovine brain membranes;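 note: Filter-bound radioactivity read by liquid scintillation counting, with dose-inhibition curves built from 4–8 test concentrations, each run in triplicate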
pIC50: −log10 of the molar value.
Assign class by pIC50: not lower than 8 means 1.0; lower than 8 means 0.0.

Some solved cases for reference:
Cn1c(=O)c2nc(C3CCCCC3)[nH]c2n(C)c1=O
1.0
Cn1c(=O)c2nc3ccccc3nc2n(C)c1=O
0.0
CCCc1nc2c([nH]1)c(=O)n(C)c(=O)n2C
0.0
Cn1c(=O)c2nc(-c3cccs3)[nH]c2n(C)c1=O
1.0
Cn1c(=O)c2[nH]c(Cc3ccccc3)nc2n(C)c1=O
0.0

Q: Is the recorded value of pIC50 equal to or greater than 8 for this compound? Cn1c(=O)c2nc(-c3ccccc3N)[nH]c2n(C)c1=O
Ans: 1.0

Q: Threshold query (pIC50 >= 8) on Cn1c(=O)c2[nH]c(-c3cccnc3)nc2n(C)c1=O
Ans: 0.0

Q: Is reported pIC50 greater than or equal to 8 here: Cc1ccc(-c2nc3c([nH]2)c(=O)n(C)c(=O)n3C)s1
Ans: 1.0

Q: Record Cn1c(=O)c2[nH]c(-c3ccc(S(=O)(=O)O)cc3)nc2n(C)c1=O ; criterion: pIC50 no lower than 8. Met?
Ans: 0.0

Q: Does the compound Cn1c(=O)[nH]c(=O)c2[nH]cnc21 have recorded pIC50 that is 8 or more?
Ans: 0.0

====

tested on: adenosine A1 receptors (Bos taurus)
test method notes: inhibition of [^3 H]CHA binding to A1 adenosine receptors in bovine brain membranes
# note: boundary value 10 nM maps to not met; IC50 below it maps to met

Cc1ccccc1-c1nc2c([nH]1)c(=O)n(C)c(=O)n2C
met
Nc1ncnc2nc[nH]c12
not met
Cn1c(=O)c2c(ncn2CCCl)n(C)c1=O
not met
O=c1nc2[nH]c3ccccc3nc-2c(=O)[nH]1
not met
Cn1c(=O)c2[nH]c(-c3ccc(Br)cc3)nc2n(C)c1=O
met

API: the following record is the query input.
Q: API: query returns whether the compound falls strictly under 10 nM in IC50. Query: Cn1c(=O)c2[nH]c(-c3ccccc3F)nc2n(C)c1=O
Ans: not met
